From: ChEMBL document CHEMBL5325481

Each item that follows carries a reported log K.
# PROTOCOL_TEXT: Lipophilicity, logK of compound at pH 7.7 in presence of 80% acetonitrile by HPLC analysis
# Format: physicochemical
# ASSAY_CONDITIONS: buffer
Just the number, please, no unit after it.

// worked examples, log K included
O=C1CCC(N2C(=O)c3cccc(OCCCCn4cc(CCCCN5CCC(NC(=O)c6n[nH]cc6NC(=O)c6c(Cl)cccc6Cl)CC5)nn4)c3C2=O)C(=O)N1 (stereo not drawn) : 0.084
O=C(NC1CCNCC1)c1n[nH]cc1NC(=O)c1c(Cl)cccc1Cl : 0.134

q: Given the entry O=C1CCC(N2C(=O)c3cccc(OCCCCn4cc(CCCCCCN5CCC(NC(=O)c6n[nH]cc6NC(=O)c6c(Cl)cccc6Cl)CC5)nn4)c3C2=O)C(=O)N1 (stereo not drawn) , report its measured log K.
a: 0.116

q: What value of measured log K is listed for O=C1CCC(N2C(=O)c3cccc(OCCCCCCCn4cc(CCCCCN5CCC(NC(=O)c6n[nH]cc6NC(=O)c6c(Cl)cccc6Cl)CC5)nn4)c3C2=O)C(=O)N1 (stereo not drawn) ?
a: 0.14

q: Recorded log K for O=C1CCC(N2C(=O)c3cccc(OCCCCn4cc(CCCCCN5CCC(NC(=O)c6n[nH]cc6NC(=O)c6c(Cl)cccc6Cl)CC5)nn4)c3C2=O)C(=O)N1 (stereo not drawn) , please?
a: 0.106
